- target.desc: T1, MotA, full length (wild type) (bacteriophage T4, UniProt P22915 1-211)
- T1 sequence (looked up): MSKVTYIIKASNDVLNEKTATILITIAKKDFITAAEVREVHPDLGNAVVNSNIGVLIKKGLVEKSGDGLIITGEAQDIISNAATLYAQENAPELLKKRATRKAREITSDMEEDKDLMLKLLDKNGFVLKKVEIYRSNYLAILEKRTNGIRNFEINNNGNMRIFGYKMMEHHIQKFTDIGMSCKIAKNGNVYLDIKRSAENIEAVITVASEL
- assay: fluorescence polarisation
Where no end group is shown, it is not given here. The star is where a group is joined. FITC = O=C1OC2(c3ccc(O)cc3Oc3cc(O)ccc32)c2ccc(NC(=S)*)cc21
measured.endpoint: pKd
Remember the convention: pKd equals -log10 of concentration in molar.

Incoming: What pKd value was documented for this binder, {FITC}-PSRSEVLRSFLDD (peptide, UniProt P00579 601-613, looked up) [fluorescein-tagged σ4-H5 peptide (σ^70 residues 601-613)] ?
Outgoing: 4.80
